Overview of reported IC50 at 48 h across a group of molecules:
- procedure-summary: Toxicity in human PC-3 cells assessed as reduction in cell number after 48 hrs by Hoechst 33342 staining based assay
measured-endpoint: IC50 at 48 h (µM)

smiles-text	relation-operator	recorded-result
CCCCCCCCCCCCCCCCC[C@H](C[C@@H]1C=CCCN1C)OC(C)=O	=	15
CCCCCCCCCCCCCCCCCCC[C@H](O)C[C@@H]1C=CCCN1C	>	25
COc1cccc2c1C(=O)c1c(O)c3c(c(O)c1C2=O)C[C@@](O)(C(=O)CO)C[C@@H]3O[C@H]1C[C@H](N)[C@H](O)[C@H](C)O1	=	0.12
CCCCCCCCCCCCCCCCC[C@@H](C[C@@H]1C=CCCN1C)OC(C)=O	=	26
CCCCCCCCCCCCCCCCCCC[C@H](C[C@@H]1C=CCCN1C)OC(C)=O	>	25
